Every entry's value here was drawn from patent US20110286916A1.

# system: T1, Notch1 extracellular fragment (amino acid 19-526) Fc fusion protein, R&D Systems 3647-TK (human, UniProt P46531 19-526)
# T1 construct: bought protein; also called Notch1/Fc; Notch1-ECD Fc fusion protein; not shown: Fc of the bought fusion protein
# T1 sequence (P46531 19-526 limits assumed): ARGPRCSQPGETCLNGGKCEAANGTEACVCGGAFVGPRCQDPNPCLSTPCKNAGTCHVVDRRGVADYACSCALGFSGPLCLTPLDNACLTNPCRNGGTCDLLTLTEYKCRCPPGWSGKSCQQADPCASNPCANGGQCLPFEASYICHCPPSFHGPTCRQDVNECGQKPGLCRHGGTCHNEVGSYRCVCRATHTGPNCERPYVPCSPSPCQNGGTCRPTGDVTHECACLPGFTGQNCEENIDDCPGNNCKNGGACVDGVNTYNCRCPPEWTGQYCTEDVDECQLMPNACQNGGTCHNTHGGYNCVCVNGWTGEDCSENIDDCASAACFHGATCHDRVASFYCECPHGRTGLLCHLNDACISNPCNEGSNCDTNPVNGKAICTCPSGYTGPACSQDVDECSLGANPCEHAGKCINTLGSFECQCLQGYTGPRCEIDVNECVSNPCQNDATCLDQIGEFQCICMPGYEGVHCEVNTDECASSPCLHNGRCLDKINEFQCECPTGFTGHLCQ
# testMethodNotes: BIAcore SPR, Notch1/Fc on CM5, Mab analyte, 1:1 binding

{"columns": ["binder", "koff (s⁻¹)"],
 "data": [
  ["S3-013 (antibody, human IgG1, lambda, V domains shown, also called hN1S3-013; HN1S3-13) VH: EVQLVQSGAEVKKPGASVKVSCKASGYNFTGYYMHWVRQAPGQGLEWMGWINPNSGGTNYAQKFQGRVTMTRDTSISTAYMELSRLRSDDTAVYYCATDSFDYWGRGTLVTVSS VL: QPVLTQPPSASGTPGQRVTISCSGSSSNIGSNYVYWYQKFPGTAPKLLIYTNNQRPSGVPDRFSGSKSGTSASLAISGLRSEDEADYYCAAWDDSLSGVVFGGGTKVTVLQ", 0.00294],
  ["S3-094 (antibody, human IgG1, lambda, V domains shown, also called hN1S3-094; HN1S3-94) VH: EVQLVQSGAEVKKPGASVKVSCKASGYNFTGYYMHWVRQAPGQGLEWMGWINPNSGGTNYAQKFQGRVTMTRDTSISTAYMELSRLRSDDTAVYYCATDSFDYWGRGTMVTVSS VL: QSVLTQPPSASGTPGQRVTISCSGGSSNIGSNTVTWYQQLPGKAPKLLIYISDQRPSGVPDRFSGSKSGTSASLAIRGLQSEDEADYYCAAWDDSLNGAVFGTGTKVTVLQ", 0.00163]
]}
